Please go through the items and note down their GI50.
test system: MOLT-4; assay: NCI tumour cell line growth inhibition, 48 h
Active and inactive are the calls of the source. No stated cut-off is given here; in the data, active = GI50 up to about 1.1 µM and inactive = higher.

// for each compound below, give its GI50
1. N#C/C(=N/Nc1[nH]cnc1C(N)=O)C(=O)Nc1ccccc1
2. Cc1nc(Nc2ccc(Cl)cc2)sc1C(=O)Nc1cccc2c(=O)[nH][nH]c(=O)c12
3. CNC1C(O)C(OC2C(N)CC(N)C(OC3OC(CN)=CCC3N)C2O)OCC1(C)O (stereo not given)
4. O=C(CCc1ccc(O)c(O)c1)NCCc1ccccc1
5. Cc1ccc(C2(C)NC(=S)N(NC(N)=S)C2=S)cc1 (stereo not given)

Result:
["4.88 µM (inactive)", "19 µM (inactive)", "> 100 µM (inactive)", "12.7 µM (inactive)", "46.3 µM (inactive)"]

// for each compound below, give its GI50
1. Nc1c([N+](=O)[O-])nc(Cl)c2nncn12
2. CCCOc1cc2c(cc1O)CC[C@@H]1[C@@H]2CC[C@]2(C)[C@@H](O)CC[C@@H]12
3. CO/N=C1\CC(C)N2C(=O)C(C(C)C)NC(=O)C(NC(=O)c3c4nc5c(C(=O)NC6C(=O)NC(C(C)C)C(=O)N7C(C)CC(O)C7C(=O)N(C)CC(=O)N(C)C(C(C)C)C(=O)OC6C)ccc(C)c5oc-4c(C)c(=O)c3N)C(CO)OC(=O)C(C)N(C)C(=O)CN(C)C(=O)C12 (stereo not given)
4. CC1CC/C(=C\c2ccc(F)cc2)C2=C1C(c1ccc(F)cc1)N1C(=O)CSC1=N2 (stereo not given)
5. C=C(CCCCC)CN1CCCC1C(C)=O (stereo not given)
6. N#C/C(=C\c1ccc(O)cc1O)C(N)=O
7. [N-]=[N+]=CC(=O)OCC(N)C(=O)O (stereo not given)
8. CC1(C)Oc2ccccc2[N+]([O-])=C1c1ccccc1

Result:
["> 100 µM (inactive)", "0.946 µM (active)", "0.222 µM (active)", "6.55 µM (inactive)", "8.75 µM (inactive)", "58.6 µM (inactive)", "0.216 µM (active)", "> 100 µM (inactive)"]

// for each compound below, give its GI50
1. O=C(/C=C/c1cccs1)c1ccc([N+](=O)[O-])cc1
2. COc1cccc(C2CC23C(=O)NC(=O)NC3=O)c1 (stereo not given)

Result:
["71 µM (inactive)", "> 100 µM (inactive)"]
